- Tested on: Puccinia recondita f. sp. tritici
- protocol.text: Test B: wheat leaf rust, preventive spray on wheat seedlings, disease rating
- Assay type: in vivo
- assay.conditions: 40 ppm (*)
Marks after values point to notes of the source that are not given here.
Parameter: Percentage Disease Control, Test B. Scope: all listed entries.

# smiles.entry, Percentage Disease Control, Test B
data = [
    ("COC(=O)NCc1cc(-c2ccn(-c3ccc(Cl)c(C(F)(F)F)c3)n2)ccc1Cl", "97* %"),
    ("COC(=O)NCc1cc(C(C)=NOC[Si](C)(C)Cc2ccccc2)ccc1Cl", "99* %"),
    ("CCSc1nsc(-n2ccc(-c3ccc(Cl)c(CNC(=O)OC)c3)n2)n1", "98* %"),
    ("COC(=O)NCc1cc(-c2ncn(-c3cccc(C(F)(F)F)c3)n2)ccc1Cl", "100* %"),
    ("CC[Si](C)(C)Cn1ccc(-c2ccc(Cl)c(CNC(=O)OC)c2)n1", "99* %"),
    ("COC(=O)NCc1cc(-c2ccn(Cc3ccc(C(F)(F)F)cc3)n2)ccc1Cl", "100* %"),
    ("COC(=O)NCc1cc(C(C)=NOC[Si](C)(C)C)ccc1Cl", "100* %"),
    ("COC(=O)NCc1cc(-c2ccn(-c3ccc(OC)cc3)n2)ccc1Cl", "100* %"),
    ("COC(=O)NCc1cc(-c2ccn(-c3ccccc3)n2)ccc1Cl", "100* %"),
    ("COC(=O)NCc1cc(-c2ccn(-c3cccc(OC(F)(F)F)c3)n2)ccc1Cl", "100* %"),
    ("COC(=O)NCc1cc(-n2ccc(-c3cccc(C(F)(F)F)c3)n2)ccc1Cl", "100* %"),
    ("COC(=O)NCc1cc(C(C)=NOC[Si](C)(C)c2ccc(F)cc2)ccc1Cl", "100* %"),
    ("COC(=O)NCc1cc(C(C)=NOC[Si](C)(C)c2ccccc2)ccc1Cl", "100* %"),
    ("COC(=O)NCc1cc(-c2ccn(-c3cc(C(F)(F)F)cc(C(F)(F)F)c3)n2)ccc1Cl", "85* %"),
    ("COC(=O)NCc1cc(-c2ccn(-c3cccc(Br)c3)n2)ccc1Cl", "99* %"),
    ("COC(=O)NCc1cc(-c2ccn(CCOc3ccccc3)n2)ccc1Cl", "100* %"),
    ("COC(=O)NCc1cc(-c2ccn(-c3nc(C)ns3)n2)ccc1Cl", "100* %"),
    ("COC(=O)NCc1cc(-c2ccn(-c3ccc(C(C)C)cc3)n2)ccc1Cl", "100* %"),
    ("COC(=O)NCc1cc(-c2ccn(CCCC(C)C)n2)ccc1Cl", "100* %"),
    ("COC(=O)NCc1cc(-c2cc(C)n(CCC[Si](C)(C)C)n2)ccc1Cl", "100* %"),
    ("COC(=O)NCc1cc(-c2ccn(-c3ccc(OC(F)(F)F)cc3)n2)ccc1Cl", "100* %"),
    ("COC(=O)NCc1cc(-n2ccc(-c3cccc(Cl)c3)n2)ccc1Cl", "99* %"),
    ("COC(=O)NCc1cc(-c2ccn(-c3cccc(C(F)(F)F)c3)n2)ccc1Cl", "99* %"),
    ("COC(=O)NCc1cc(-c2ccn(Cc3cccc(Cl)c3)n2)ccc1Cl", "99* %"),
    ("C#CCCCn1ccc(-c2ccc(Cl)c(CNC(=O)OC)c2)n1", "99* %"),
    ("COC(=O)NCc1cc(-c2ccn(-c3cccc(C)n3)n2)ccc1Cl", "100* %"),
    ("COC(=O)NCc1cc(-c2ccn(-c3cccc(Cl)c3)n2)ccc1Cl", "98* %"),
    ("COC(=O)NCc1cc(-c2ccn(-c3cccc(OC)c3)n2)ccc1Cl", "100* %"),
    ("COC(=O)NCc1cc(-c2ccn(-c3cc(C(F)(F)F)ccn3)n2)ccc1Cl", "100* %"),
    ("COC(=O)NCc1cc(-c2ccn(-c3nc(C(C)(C)C)ns3)n2)ccc1Cl", "100* %"),
    ("COC(=O)NCc1cc(-c2ccn(CCC[Si](C)(C)C)n2)ccc1Cl", "100* %"),
    ("COC(=O)NCc1cc(-c2ccn(Cc3cccc([N+](=O)[O-])c3)n2)ccc1Cl", "98* %"),
    ("C#CCCCn1nc(-c2ccc(Cl)c(CNC(=O)OC)c2)cc1C", "100* %"),
    ("COC(=O)NCc1cc(-n2ccc(-c3cccc(Br)c3)n2)ccc1Cl", "98* %"),
    ("CCCCn1ccc(-c2ccc(Cl)c(CNC(=O)OC)c2)n1", "99* %"),
    ("COC(=O)NCc1cc(-c2ccn(-c3ccc(C)cn3)n2)ccc1Cl", "100* %"),
    ("CCCCn1nc(-c2ccc(Cl)c(CNC(=O)OC)c2)cc1C(F)(F)F", "98* %"),
]

====

- Tested on: Erysiphe graminis f. sp. tritici
- protocol.text: Test A: wheat powdery mildew, preventive spray on wheat seedlings, disease rating
- Format: in vivo
- assay.conditions: 40 ppm (*)
Marks after values point to notes of the source that are not given here.
A collection of compounds and their measured Percentage Disease Control, Test A
value.kind: Percentage Disease Control, Test A

# compound, result
measured = [
    ("COC(=O)NCc1cc(-c2ccn(Cc3cccc([N+](=O)[O-])c3)n2)ccc1Cl [Cmpd 73]", "74* %"),
    ("COC(=O)NCc1cc(-c2ccn(Cc3ccccc3)n2)ccc1Cl [Cmpd 57]", "97* %"),
    ("COC(=O)NCc1cc(-c2ccn(-c3ccc(C(F)(F)F)cc3)n2)ccc1Cl [Cmpd 79]", "99* %"),
    ("COC(=O)NCc1cc(-c2ccn(Cc3ccccc3Cl)n2)ccc1Cl [Cmpd 37]", "99* %"),
    ("CC[Si](C)(C)CON=C(C)c1ccc(Cl)c(CNC(=O)OC)c1 [Compound 7]", "100* %"),
    ("COC(=O)NCc1cc(-c2ccn(Cc3ccc(C(F)(F)F)cc3)n2)ccc1Cl [Cmpd 63]", "97* %"),
    ("CON=C(C(=O)OC)c1cc(-c2ccn(-c3cccc(C(F)(F)F)c3)n2)ccc1C [Cmpd 84]", "98* %"),
    ("COC(=O)NCc1cc(-c2ccn(-c3nccc(C(F)(F)F)n3)n2)ccc1Cl [Cmpd 87]", "82* %"),
    ("COC(=O)NCc1cc(-c2ccn(-c3ccc(C(C)C)cc3)n2)ccc1Cl [Cmpd 110]", "100* %"),
    ("COC(=O)NCc1cc(-c2cc(C(F)(F)F)n(CCC(C)(C)C)n2)ccc1Cl [Cmpd 101]", "98* %"),
    ("C#CCCCn1nc(-c2ccc(Cl)c(CNC(=O)OC)c2)cc1C [Cmpd 39]", "99* %"),
    ("COC(=O)NCc1cc(-n2ccc(-c3cccc(Cl)c3)n2)ccc1Cl [Cmpd 123]", "98* %"),
    ("COC(=O)NCc1cc(-c2ncn(-c3ccc(Br)cc3)n2)ccc1Cl [Cmpd 97]", "98* %"),
    ("COC(=O)NCc1cc(-c2ccn(-c3cc(C(F)(F)F)cc(C(F)(F)F)c3)n2)ccc1Cl [Cmpd 78]", "100* %"),
    ("COC(=O)NCc1cc(C(C)=NOC[Si](C)(C)c2ccc(F)cc2)ccc1Cl [Compound 16]", "99* %"),
    ("COC(=O)NCc1cc(-n2ccc(-c3cccc(C(F)(F)F)c3)n2)ccc1Cl [Cmpd 119]", "100* %"),
    ("CCCCn1nc(-c2ccc(Cl)c(CNC(=O)OC)c2)cc1C(F)(F)F [Cmpd 102]", "98* %"),
    ("CCCn1nc(-c2ccc(Cl)c(CNC(=O)OC)c2)cc1C(F)(F)F [Cmpd 103]", "99* %"),
]

====

- Tested on: Botrytis cinerea
- protocol.text: Test F: tomato Botrytis, preventive spray on tomato seedlings, disease rating
- Format: in vivo
- assay.conditions: 200 ppm
The reader will find reported Percentage Disease Control, Test F values listed item by item below.
value.kind: Percentage Disease Control, Test F

# smiles.entry, result
measured = [
    ("COC(=O)NCc1cc(-c2ccn(-c3cccc(OC)c3)n2)ccc1Cl", "89%"),
    ("C#CCCCn1ccc(-c2ccc(Cl)c(CNC(=O)OC)c2)n1", "0%"),
    ("COC(=O)NCc1cc(C(C)=NOC[Si](C)(C)c2ccc(Cl)cc2)ccc1Cl", "0%"),
    ("COC(=O)NCc1cc(-c2ccn(-c3ccccc3Cl)n2)ccc1Cl", "99%"),
    ("CCCn1nc(-c2ccc(Cl)c(CNC(=O)OC)c2)cc1C(F)(F)F", "0%"),
]

====

- Test system: Alternaria solani
- protocol.text: Test H: tomato early blight, preventive spray on tomato seedlings, disease rating
- Type: in vivo
- assay.conditions: 40 ppm (*)
- Excerpt: The test compounds were first dissolved in acetone in an amount equal to 3% of the final volume and then suspended at the desired concentration (in ppm) in acetone and purified water (50/50 mix) containing 250 ppm of the surfactant Trem® 014 (polyhydric alcohol esters). The resulting test suspensions were then used in Tests A-L. Spraying a 200 ppm test suspension to the point of run-off on the test plants was the equivalent of an application rate of 500 g/ha. […]
Marks after values point to notes of the source that are not given here.

# compound, Percentage Disease Control, Test H
rows = [
    ("COC(=O)NCc1cc(-c2ccn(-c3cccc(OC)c3)n2)ccc1Cl", "99* %"),
    ("COC(=O)NCc1cc(-c2cc(C)n(CCC[Si](C)(C)C)n2)ccc1Cl", "50* %"),
    ("COC(=O)NCc1cc(-c2ccn(-c3cccc(Cl)c3)n2)ccc1Cl", "29* %"),
    ("COC(=O)NCc1cc(-c2ccn(CC(C)Oc3ccccc3)n2)ccc1Cl (racemic)", "0* %"),
    ("COC(=O)NCc1cc(-c2ccn(CCC(=O)c3ccc(Cl)cc3)n2)ccc1Cl", "92* %"),
    ("COC(=O)NCc1cc(-c2ncn(-c3cccc(C(F)(F)F)c3)n2)ccc1Cl", "89* %"),
    ("COC(=O)NCc1cc(-c2ccn(Cc3cccc(OC(F)(F)F)c3)n2)ccc1Cl", "8* %"),
    ("COC(=O)NCc1cc(-c2ccn(Cc3ccccc3C)n2)ccc1Cl", "96* %"),
    ("COC(=O)NCc1cc(-c2ccn(-c3ccc(Cl)cc3)n2)ccc1Cl", "99* %"),
]
